# studySystem: pooled human IgG (human IgG1,2,3 and 4)
readoutLabel: Enzyme Activity Endpoint Assay: Fab′2 (ng/µL)
Numbers only, in ng/µL.

Solved entries:
PRT-301 (protein) MVTSVWTKGVTPPTDFIKGEDVFHAPYDAGQGWYDITKTFNGKDDLLCGAATAGNMLHWWFDQNKEYIEAYLKKHPEKQKIMFGDQELLDVRKAINTKGSQKNSELFNYFRDKAFPNLSARRLGVMPDLVLDMFINGYYLNVTKTQTTDVNRTYQEKDKRGGIFDAVFTRGDQSKLLTSRHDFKEKGLKEISDLIKQELTEGKALGLSHTYANVRISHVINLWGADFDSDGNLKAIYVTDSDSNASIGMKKYFVGVNSAGKVAISAKEIKEDNIGAQVLGLFTLSTGQDIWNQTN
0
PRT-466 (protein) MITSVWTKGVTPPTDFIKGEDVFHAPYKAGQGWYDITKAFDGGDDLLCGAATAGNMLHWWFDQNKDQIERYLKEHPEKQKINFNGEQMFDVKEAIDTKDSQTNSELFNYFKEKAFPYLSTKHLGVFPDHVLDMFINGYRLSLTNHGPTPVKRQEKDPRGGIFDAVFGRGDQTKLLTSRHDFKEKTLNEISQLIKQELTEGKALGLSHTYANVRINHVINLWGADFDAEGNLEAIYVTDSDSNASIGMKKYFVGVNSAGKVAISAKEIKEDNIGAQVLGLFTLSTGQKIWNKTNLEHHHHHH
404
PRT-682 (protein) MQITSVWTKGVTPLTPEQFRNNNEDVIHAPYLANQGWYDITKTFNGKDNLLCGAATAGNMLHWWFDQNKTEIEAYLKKHPEKQKIIFNNQELFDLKKAIDTKDSQTNSQLFNYFRDKAFPNLSARQLGVMPDLVLDMFINGYYLNVFKTQSTDVNRPYQDKDKRGGIFDAVFTRGDQTTLLTSRHDLKNKGLNEISDIIKQELTEGKALALSHTYANVSISHVINLWGADFNAEGNLEAIYVTDSDANASIGMKKYFVGVNAHGKVAISAKKIEGENIGAQVLGLFTLSSGKDIWQKLSLEHHHHHH
0

Shift focus to the following entry.
Looking up PRT-87 (protein) MANQEIRYSEVTPYHITSVWTKGVTPPEQFTQGEDVFHAPYIANQGWYDITKTFNGKDNLLCGAATAGNMLHWWFDQNKEEIERYLKKYPEKQKIMFGDQELLDVRKVINTKDSQTNSKLFEYFRDKAFPNLSARRLGVMPDLVLDMFINGYYLSVTKTQTTDVNRTYGNKDNRGGIFDAVFTRGDQSKLLTNRHDFKEKNLKEISQLIKQELQEGKALALSHTYANVRINHVINLWGADFDSEGNLKAIYVTDSDSNASIGMKKYFVGVNSSGKVAISAKEIEEDNIGAQVLGLFTLSTGQDIWEQTN , I see its Enzyme Activity Endpoint Assay: Fab′2 listed as 0
